- Test system: HOP-62 NSCLC
- assay details: NCI tumour cell line growth inhibition, 48 h
outcome measure: TGI

Here is how some compounds turned out for TGI.
CCN1C(=O)N(CC)C2C1NC(=S)N2/N=C/C=C/c1ccccc1 (stereo not drawn)	> 100 µM
O=C(N/N=C/c1ccccc1)c1c(F)c(F)c(F)c(F)c1F	> 100 µM
Cc1cc2nc(N3C(=O)/C(=C/Cc4ccco4)N=C3c3ccccc3)sc2cc1C	> 100 µM

Please fill in: TGI reported for O=C1Nc2ccc(-c3cccnc3)cc2/C1=C/c1cc(Br)c(O)c(Br)c1 = > 25 µM

compound Nc1nc(Cl)c2ncn(Cc3ccc(C45CC6CC(CC(C6)C4)C5)c(OCc4cc(F)c(F)cc4F)c3)c2n1 , TGI observed: 10.8 µM

What the record says about CCOC(=O)N1CCNCCN(C(=O)OCC)CCNCC1 : TGI is > 100 µM

// sample C[n+]1cn(CC(=O)c2ccccc2)c(C(N)=O)c1N , its TGI was > 100 µM

Noted for CC1CC(c2ccccc2)=Nc2ccccc2S1 (stereo not drawn) : its TGI reads > 100 µM

// recorded TGI for Cn1c2c(c3c(=O)[nH]ncc31)Cc1ccccc1-2 : > 100 µM

In plain terms, O=C1/C(=C\c2cccc(Oc3ccccc3)c2)SC(c2ccccc2)N1c1cc(Cl)ccc1Cl (stereo not drawn) has a documented TGI of > 100 µM

Lab note: N#CN1CC[C@H](C(=O)Nc2ncc(-c3ccccc3)s2)C1 gave TGI of 4.21 µM

Measured TGI, O=C1C2C(C(=O)N1Cc1ccccc1)N(Cc1ccccc1)C(=O)N2Cc1ccccc1 (stereo not drawn) : > 100 µM

For this compound ( COc1cccc2c(=O)oc(-c3ccccc3C)nc12 ), measured TGI is 76.3 µM

----------
- Test system: HCC-2998 colon
- assay details: NCI tumour cell line growth inhibition, 48 h
Parameter TGI: see the listing below.

Worked cases, TGI given:
CN(C)CCNC(=O)Nc1ccc(N(C)c2ccnc(Nc3ccc(CS(C)(=O)=O)cc3)n2)cc1	> 25 µM
C=C1C(=O)O[C@@H]2C[C@@]3(C)[C@H](O)CCC(=C)[C@@H]3C[C@H]12	23.8 µM
CC(C)(C)C1=NO[C@H]2[C@@H](NC(=O)c3ccccc3)CC[C@@H]12	> 100 µM
COc1cccc2c(=O)oc(-c3ccccc3C)nc12	> 100 µM
COCOC1CCCC[C@@]1(OCCOCCO[C@@]1(c2ccccc2)CCCC[C@H]1OCOC)c1ccccc1 (some centres not stated)	> 100 µM
COc1ccc(O[C@H](CO)C[C@@H]2COC(C)(C)O2)cc1	> 100 µM
CC(C)(C)OC(=O)N[C@H]1CC(=O)c2ccccc2N(CC(=O)O)C1=O	> 100 µM
COC(=O)[C@]12CC[C@@H](C)[C@H](C)[C@@H]1C1=CC[C@@H]3[C@@]4(C)C(C=O)=C[C@@](C)(COS(C)(=O)=O)C4=CC[C@@]3(C)[C@]1(C)CC2	0.466 µM

Proceeding to the next molecule to report its TGI.
The molecule listed as CCOC1c2nc3ccccc3nc2-c2ccccc2N1C(C)=O (configuration not stated) shows TGI equal to > 100 µM

----------
- Test system: LXFL 529 NSCLC
- assay details: NCI tumour cell line growth inhibition, 48 h
outcome measure: TGI

Answered examples (2):
O=C1OC(=O)c2c1nc1ccccc1c2-c1ccccc1	> 100 µM
COCOC1CCCC[C@@]1(OCCOCCO[C@@]1(c2ccccc2)CCCC[C@H]1OCOC)c1ccccc1 (stereo partly drawn)	> 100 µM

// switching to the query molecule
TGI for CCOC1c2nc3ccccc3nc2-c2ccccc2N1C(C)=O (stereo not drawn) is > 100 µM

----------
- Test system: SK-OV-3 ovarian
- assay details: NCI tumour cell line growth inhibition, 48 h
outcome measure: log10(TGI) (log10 of the value in µM)
Values reflect log10 of reported TGI (µM).

Examples with answers:
CCc1ccc(Oc2c(-c3ccc(OCc4ccc(Cl)cc4)cc3O)nn(C)c2C(F)(F)F)cc1	0.70
O=C(CI)NC(=O)NC(=O)NCc1ccccc1	1.46
CC(C)CNP(=O)(NCC(C)C)Oc1ccc(CC(NC(=O)OCc2ccccc2)C(=O)OCc2ccccc2)cc1 (centres undefined)	1.47
CN(C)CCCOc1ccc(NC2=C(Cl)C(=O)C(Nc3ccc(OCCCN(C)C)cc3)=C(Cl)C2=O)cc1	0.52
C=C1C(=O)O[C@@H]2C[C@@]3(C)[C@H](O)CCC(=C)[C@@H]3C[C@H]12	1.72
COS(=O)c1cc(Cl)cc(Cl)c1OC(=O)CSSCC(=O)Oc1c(Cl)cc(Cl)cc1S(=O)OC (centres undefined)	1.91
COc1cc(C=O)cc(C=Nc2ccc(Br)cc2)c1O	0.89
CCNC(=S)N/N=C(/C)c1cccc(/C(C)=N\NC(=S)NCC)n1	1.87

Kindly note: SK-OV-3 ovarian, CC(C)C(NCc1c2ccccc2[n+](C)c2ccccc12)C(=O)O (centres undefined) , log10(TGI) value reported: 1.49

The recorded log10(TGI) with SK-OV-3 ovarian for CCCCCCCCCCCCCCCC(=O)OCC1OC(n2cc(F)c(=O)[nH]c2=O)C(NC(=O)OCc2ccccc2)C(O)C1O (centres undefined) was 1.82

----------
- Tested on: MCF7 breast
- assay details: NCI tumour cell line growth inhibition, 48 h
outcome measure: TGI

CC(C)(C)O/N=C/c1cc(NC(=S)c2ccccc2)ccc1Cl	> 100 µM
COc1ccc(C2C(=O)c3ccc(OC)cc3OC2c2cccnc2)cc1 (stereo not drawn)	> 100 µM
CC(C)(C)C(=O)c1c(O)c2ccccc2c2ccccc2c1=O	> 100 µM
O=c1[nH]nc(Nc2ccc(Cl)cc2)c2nnn(C3CCCCC3)c12	> 100 µM

COc1ccc(N(CC(=O)O)N=O)cc1 yielded TGI of > 100 µM

----------
- System: MDA-MB-231 breast
- assay details: NCI tumour cell line growth inhibition, 48 h
outcome measure: TGI

Lab note: measured TGI of Cc1cc2nc(N3C(=O)/C(=C/Cc4ccco4)N=C3c3ccccc3)sc2cc1C was > 100 µM

----------
- Test system: OVCAR-8 ovarian
- assay details: NCI tumour cell line growth inhibition, 48 h; in the data active = GI50 below about 0.43 µM; inactive = the rest
Select the matching outcome among active, inactive

See these solved cases before continuing.
COc1ccc([C@@]23Oc4cc(OC)cc(OC)c4[C@]2(O)[C@H](O)[C@H](C(=O)N(C)C)[C@H]3c2ccccc2)cc1	active
O=C(CI)NC(=O)NC(=O)NCc1ccccc1	inactive
CN(C)CCCOc1ccc(NC2=C(Cl)C(=O)C(Nc3ccc(OCCCN(C)C)cc3)=C(Cl)C2=O)cc1	inactive
Cc1ccc2ccc3c4ccccc4ccc3c2c1	inactive

Let us examine a further case.
Ask: Outcome logged for Cn1cc(-c2ccc3ncc(-c4ccc(CC(=O)Nc5cc(C(C)(C)C)nn5C)cc4)cc3c2)cn1 in this assay:
Reply: inactive

----------
- System: HCT-15 colon
- assay details: NCI tumour cell line growth inhibition, 48 h
Reported TGI values for the following compounds.

COc1ccc(/C(C=O)=C(\Cl)c2ccc(OC)c(OC)c2)cc1	> 100 µM
CCCCCCCCCC1CC(=O)OC23CCCC(=O)C12O3 (stereo not drawn)	> 100 µM
COc1cc2c(cc1O)NC(=O)[C@@H]1C[C@@H](O)CN1C2=O	> 100 µM
OC1=CN=C(c2ccccc2)Oc2ccccc21	> 100 µM
O=C1C2C(C(=O)N1Cc1ccccc1)N(Cc1ccccc1)C(=O)N2Cc1ccccc1 (stereo not drawn)	> 100 µM

Sure, the documented TGI for COc1ccc(-c2cnc(-c3ccncc3-c3cccc(OC)c3)o2)cc1 is 14.5 µM

Notebook: C/C(=N\NC(=S)N1CCC1)c1ccccn1 , TGI read as 45.4 µM

Looking up O=C1OC(=O)c2c1nc1ccccc1c2-c1ccccc1 , I see its TGI listed as > 100 µM

----------
Listed here are compounds together with their documented TGI.
- Tested on: HCT-116 colon
- assay details: NCI tumour cell line growth inhibition, 48 h

CCOC(=O)C1=C(C)N(NC(N)=O)C2(N)N(NC(N)=O)C(C)=C(C(=O)OCC)C12C#N (stereo not given)	> 100000 nM
Cc1cccc2c1nc1n2C(=O)c2ccccc2-1	> 100000 nM
N#CN1CC[C@H](C(=O)Nc2ncc(-c3ccccc3)s2)C1	2180 nM
COc1ccc(/C(C=O)=C(\Cl)c2ccc(OC)c(OC)c2)cc1	> 100000 nM

The compound listed as CN(C)CCCOc1ccc(NC2=C(Cl)C(=O)C(Nc3ccc(OCCCN(C)C)cc3)=C(Cl)C2=O)cc1 shows TGI equal to 368 nM

----------
- Test system: SF-539 CNS
- assay details: NCI tumour cell line growth inhibition, 48 h
outcome measure: TGI

Some compounds with known TGI results, for comparison:
Cc1ccc(S(=O)(=O)NC(=O)Nc2ccc(C(=O)O)cc2)cc1	> 100 µM
CC(=O)OC12c3ccccc3C(c3ccccc31)C1C(=O)N(N=C(C)C)C(=O)C12 (configuration not stated)	> 100 µM
C1CN2CCO[SiH](O1)OCC2	> 100 µM
CC(C)(C)O/N=C/c1cc(NC(=S)c2ccccc2)ccc1Cl	71.4 µM
O=c1c2[nH]cnc2n(-c2ccccc2)c(=S)n1-c1ccccc1	> 100 µM
O=C(N/N=C/c1ccccc1)c1c(F)c(F)c(F)c(F)c1F	> 100 µM

Value of measured TGI for the entry O=c1[nH]c(=S)[nH]c(O)c1/C=C1\C=Nc2ccccc21 : 9.87 µM

For reference, reported TGI for Cc1cccc2c1nc1n2C(=O)c2ccccc2-1 stands at > 100 µM

TGI for CC(C)N(C(=O)C12C3C4C1C1C4(C#N)C3C12C(=O)O)C(C)C (configuration not stated) is > 100 µM

Form field TGI, entry COS(=O)c1cc(Cl)cc(Cl)c1OC(=O)CSSCC(=O)Oc1c(Cl)cc(Cl)cc1S(=O)OC (configuration not stated) : 47.6 µM

C/C(=C/CCC(C)[C@@H]1CC[C@]2(C)C3=C(CC[C@@]12C)[C@@]1(C)CCC(=O)C(C)(C)[C@@H]1CC3)C(=O)O (some centres not stated) yielded TGI of 2.93 µM

Looking up O=C(O)[C@H]1NC[C@H]2C(Br)=NO[C@@H]12 , I see its TGI listed as > 100 µM

Item: O=C(Nc1ccc(-n2cc(-c3ccncc3)c(-c3ccc(Cl)c(O)c3)n2)cc1)c1cc(C(F)(F)F)cc(C(F)(F)F)c1 | TGI: 13.8 µM

Looking up [O-][n+]1c2cccc(O)c2[n+]([O-])c2cccc(O)c21 , I found its TGI recorded as > 100 µM

Sure, the documented TGI for CCOC(=O)C[C@@]12CCCN[C@]1(C)CCc1ccccc12 is > 100 µM

So for COc1cc2c(cc1O)NC(=O)[C@@H]1C[C@@H](O)CN1C2=O , the logged TGI turned out to be > 100 µM

Per the records, this compound ( O=c1[nH]c2c(Nc3c4ccccc4nc4ccccc34)c([N+](=O)[O-])c(Nc3c4ccccc4nc4ccccc34)c([N+](=O)[O-])c2[nH]1 ) has TGI equal to 18.6 µM

Record CC1(C)N=C(/C(Cl)=[N+](/[O-])C(=O)c2ccc(Cl)cc2)C(C)(C)N1O , field TGI: 44 µM
